- measurement protocol: Permeability across hCMEC/D3 (D3) brain endothelial cell line
- Type: in vitro ADME
- reported conditions: human, fluorescein 10 μg/ml, mean ± SD
measurement name: Papp at 30 min, 10 µg/ml
Hey, just the number and the unit after it is fine.

// recorded Papp at 30 min, 10 µg/ml for O=C1OC2(c3ccc(O)cc3Oc3cc(O)ccc32)c2ccccc21 [Fluorescein, fluorescein] : 222 nm/s

* * *

- measurement protocol: Permeability across vinblastine-selected VB-Caco-2 cell layers
- reported conditions: human
measurement name: Papp at 30 min, 10 µg/ml (×10⁻⁶ cm/s)
The response must be a number in ×10⁻⁶ cm/s with no trailing unit.

// recorded Papp at 30 min, 10 µg/ml for O=C1OC2(c3ccc(O)cc3Oc3cc(O)ccc32)c2ccccc21 : 0.3
